molecular target: Adenosine receptor A1 (Rattus norvegicus, UniProt P25099)
Sequence (P25099 whole entry): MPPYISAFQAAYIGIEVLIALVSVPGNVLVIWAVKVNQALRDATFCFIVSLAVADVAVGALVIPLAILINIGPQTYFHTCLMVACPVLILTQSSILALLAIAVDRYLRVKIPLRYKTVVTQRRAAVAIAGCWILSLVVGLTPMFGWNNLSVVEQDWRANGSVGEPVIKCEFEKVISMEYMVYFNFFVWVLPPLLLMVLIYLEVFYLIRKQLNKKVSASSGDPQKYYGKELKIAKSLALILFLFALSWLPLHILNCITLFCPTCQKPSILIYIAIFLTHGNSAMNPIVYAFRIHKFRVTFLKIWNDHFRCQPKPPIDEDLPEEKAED
metric: pKi
Just the number, please; pKi means minus log10 of the concentration in mol/L.

Query: Lookup: pKi / Adenosine receptor A1 (Rattus norvegicus, UniProt P25099) / Oc1ccc(-c2nc3cc(O)ccc3n2Cc2ccc(OCCN3CCCCC3)cc2)cc1
Result: 5.43

---

system: Calf thymus DNA; assay: Binding affinity to calf thymus DNA assessed as change in melting temperature; format: nucleic-acid assay; details: Bos taurus
The entries below are paired with their reported ΔTm.
State the answer as a number, implicitly in °C.

Use the examples below as a reference point.
Oc1ccc2nc(-c3ccccc3)n(Cc3ccc(OCCN4CCCCC4)cc3)c2c1    3
Oc1ccc(-c2nc3cc(O)ccc3n2Cc2ccc(OCCN3CCCCC3)cc2)cc1    3
Oc1ccc(-c2nc3ccccc3n2Cc2ccc(OCCN3CCCCC3)cc2)cc1    3
Oc1ccc(-c2nc3ccc(O)cc3n2Cc2ccc(OCCN3CCCCC3)cc2)cc1    3

We now examine a further compound.
Query: Lookup: ΔTm / Calf thymus DNA / Oc1ccc2c(c1)nc(-c1ccccc1)n2Cc1ccc(OCCN2CCCCC2)cc1
Result: 3
